- measured-target: full-length human LRH-1 R174D/D314R (human, UniProt O00482 1-541, R174D | D314R)
- Sequence (O00482 whole entry R174D/D314R): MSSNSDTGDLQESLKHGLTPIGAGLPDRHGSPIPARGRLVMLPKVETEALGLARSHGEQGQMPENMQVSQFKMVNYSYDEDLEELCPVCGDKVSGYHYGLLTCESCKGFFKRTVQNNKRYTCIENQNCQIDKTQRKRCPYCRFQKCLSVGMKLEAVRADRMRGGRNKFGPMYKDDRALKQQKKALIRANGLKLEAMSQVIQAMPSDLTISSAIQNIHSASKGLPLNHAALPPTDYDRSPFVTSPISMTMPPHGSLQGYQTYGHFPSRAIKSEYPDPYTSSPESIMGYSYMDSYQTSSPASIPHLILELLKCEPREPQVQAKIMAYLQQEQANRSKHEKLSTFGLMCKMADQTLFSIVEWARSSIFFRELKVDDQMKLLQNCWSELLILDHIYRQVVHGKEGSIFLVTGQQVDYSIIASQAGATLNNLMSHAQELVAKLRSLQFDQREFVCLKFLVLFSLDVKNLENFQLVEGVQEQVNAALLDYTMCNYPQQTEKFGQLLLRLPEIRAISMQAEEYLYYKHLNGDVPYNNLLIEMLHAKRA
- assay-notes: fluorescence polarisation
Ends that are not written are not given here.
metric-name: pKd
Conceptually, pKd converts a concentration in mol/L into minus its log10.

Suppose we examine the binder {FAM}-EEPSLLKKLLLAPA [N-terminally FAM-labeled PGC1α co-regulator peptide (740-EEPSLLKKLLLAPA-753)] ; what pKd value has been reported?
5.76
